Molecular target: HLA-A*02:01 (Homo sapiens, UniProt P04439, D140Y/D185E/D98H/E176V/E277Q/G131W/G231S/I119V/I121R/I166T/I218V/L300P/L318F/N151K/N90K/P208A/P217A/Q86G/Q94H/R138H/R169H/T345S)
Test: MHC binding assay (UV-ligand exchange, β2m ELISA, peptide exchange yield)
Details: binding of HLA-class I restricted peptides to HLA-A*02:01, UV-ligand exchange
Description: Candidate peptides for T cell based therapies according to the present invention were further tested for their MHC binding capacity (affinity). The individual peptide-MHC complexes were produced by UV-ligand exchange, where a UV-sensitive peptide is cleaved upon UV-irradiation, and exchanged with the peptide of interest as analyzed. Only peptide candidates that can effectively bind and stabilize the peptide-receptive MHC molecules prevent dissociation of the MHC complexes. […]
parameterMeasured: Peptide exchange (MHC class I binding score, peptide exchange yield)

Below are worked cases with known answers.
- substance: "167 (KVLEVTEEFGV; listed as Homo sapiens) [compound 167]"
  readoutValue: "“+++” (≥50 = +++)"
- substance: "599 (YLLNDASLISV; listed as Homo sapiens) [compound 599]"
  readoutValue: "“+++” (≥50 = +++)"
- substance: "539 (ALFDAQAQV; listed as Homo sapiens) [compound 539]"
  readoutValue: "“+++” (≥50 = +++)"
- substance: "430 (HLYSSIEHLTT; listed as Homo sapiens) [compound 430]"
  readoutValue: "“+++” (≥50 = +++)"

Reported Peptide exchange (MHC class I binding score, peptide exchange yield) for 251 (ALYTGFSILV; listed as Homo sapiens) [compound 251] was “++” (≥20% = ++)

The reported Peptide exchange (MHC class I binding score, peptide exchange yield) of the substance 240 (ILLEQAFYL; listed as Homo sapiens) [compound 240] was “+++” (≥50 = +++)

The substance listed as 75 (GLLEVMVNL; listed as Homo sapiens) [compound 75] shows Peptide exchange (MHC class I binding score, peptide exchange yield) equal to “+++” (≥50 = +++)

Item: 45 (SLWQDIPDV; listed as Homo sapiens) [compound 45] | Peptide exchange (MHC class I binding score, peptide exchange yield): “+++” (≥50 = +++)

Record summary for 434 (KVSNSGITRV; listed as Homo sapiens) [compound 434] : reported Peptide exchange (MHC class I binding score, peptide exchange yield) = “++” (≥20% = ++)

Briefly, Peptide exchange (MHC class I binding score, peptide exchange yield) measured for 9 (GAAKDLPGV; listed as Homo sapiens) [compound 9] : “++” (≥20% = ++)

577 (VMFEDGVLMRL; listed as Homo sapiens) [compound 577] yielded Peptide exchange (MHC class I binding score, peptide exchange yield) of “+++” (≥50 = +++)

So, 446 (QLIPALAKV; listed as Homo sapiens) [compound 446] ? Its Peptide exchange (MHC class I binding score, peptide exchange yield) was “+++” (≥50 = +++)

Peptide exchange (MHC class I binding score, peptide exchange yield) recorded for this substance, 74 (ALLDPEVLSIFV; listed as Homo sapiens) [compound 74] , is “+++” (≥50 = +++)

Recorded result, 488 (FLAEDPKVTL; listed as Homo sapiens) [compound 488] , Peptide exchange (MHC class I binding score, peptide exchange yield): “+++” (≥50 = +++)

Summary for this substance, 522 (TLWYRSPEV; listed as Homo sapiens) [compound 522] : Peptide exchange (MHC class I binding score, peptide exchange yield) is “++” (≥20% = ++)

Kindly note the recorded Peptide exchange (MHC class I binding score, peptide exchange yield) for 307 (ALPVSLPQI; listed as Homo sapiens) [compound 307] , which is “+++” (≥50 = +++)

* * *

Molecular target: HLA-A*02:01 (Homo sapiens, UniProt P04439, D140Y/D185E/D98H/E176V/E277Q/G131W/G231S/I119V/I121R/I166T/I218V/L300P/L318F/N151K/N90K/P208A/P217A/Q86G/Q94H/R138H/R169H/T345S)
Experiment: MHC binding assay (UV-ligand exchange, β2m ELISA, peptide exchange yield)
Settings: binding of HLA-class I restricted peptides to HLA-A*02:01, UV-ligand exchange
parameterMeasured: Peptide exchange (MHC class I binding score, peptide exchange yield)

# count of solved cases: 6
- substance: "102 (YLFESEGLVL; listed as Homo sapiens) [compound 102]"
  readoutValue: "“+++” (≥50 = +++)"
- substance: "161 (ALLEGVNTV; listed as Homo sapiens) [compound 161]"
  readoutValue: "“+++” (≥50 = +++)"
- substance: "76 (ILIDSIYKV; listed as Homo sapiens) [compound 76]"
  readoutValue: "“+++” (≥50 = +++)"
- substance: "172 (VLYSYTIITV; listed as Homo sapiens) [compound 172]"
  readoutValue: "“++” (≥20% = ++)"
- substance: "501 (LLDPNVKSIFV; listed as Homo sapiens) [compound 501]"
  readoutValue: "“+++” (≥50 = +++)"
- substance: "118 (KLIDNNINV; listed as Homo sapiens) [compound 118]"
  readoutValue: "“+++” (≥50 = +++)"

The reported value for 548 (ALWENPESGEL; listed as Homo sapiens) [compound 548] in terms of Peptide exchange (MHC class I binding score, peptide exchange yield) is “++” (≥20% = ++)

# Peptide exchange (MHC class I binding score, peptide exchange yield) (substance: 180 (FQIDPHSGLVTV; listed as Homo sapiens) [compound 180] ) is “++” (≥20% = ++)

Reported Peptide exchange (MHC class I binding score, peptide exchange yield) ( 309 (GLFDGVPTTA; listed as Homo sapiens) [compound 309] ) = “+++” (≥50 = +++)

* * *

Molecular target: HLA-A*02:01 (Homo sapiens, UniProt P04439, D140Y/D185E/D98H/E176V/E277Q/G131W/G231S/I119V/I121R/I166T/I218V/L300P/L318F/N151K/N90K/P208A/P217A/Q86G/Q94H/R138H/R169H/T345S)
Assay: MHC binding assay (UV-ligand exchange, β2m ELISA, peptide exchange yield)
Settings: binding of HLA-class I restricted peptides to HLA-A*02:01, UV-ligand exchange
parameterMeasured: Peptide exchange (MHC class I binding score, peptide exchange yield)

Check out these entries, answers already filled in.
- substance: "126 (VLAYFLPEA; listed as Homo sapiens) [compound 126]"
  readoutValue: "“++++” (≥75% = ++++)"
- substance: "33 (VLLSLLEKV; listed as Homo sapiens) [compound 33]"
  readoutValue: "“++” (≥20% = ++)"
- substance: "544 (LLWDVPAPSL; listed as Homo sapiens) [compound 544]"
  readoutValue: "“+++” (≥50 = +++)"
- substance: "329 (FLVTLNNVEV; listed as Homo sapiens) [compound 329]"
  readoutValue: "“++++” (≥75% = ++++)"
- substance: "511 (FLDPYCSASV; listed as Homo sapiens) [compound 511]"
  readoutValue: "“++” (≥20% = ++)"
- substance: "487 (LLINSVFHV; listed as Homo sapiens) [compound 487]"
  readoutValue: "“+++” (≥50 = +++)"
- substance: "8 (FTLGNVVGMYL; listed as Homo sapiens) [compound 8]"
  readoutValue: "“++++” (≥75% = ++++)"
- substance: "14 (AAYGGLNEKSFV; listed as Homo sapiens) [compound 14]"
  readoutValue: "“+++” (≥50 = +++)"
- substance: "176 (YLMEGSYNKVFL; listed as Homo sapiens) [compound 176]"
  readoutValue: "“++” (≥20% = ++)"
- substance: "69 (FQLDPSSGVLVTV; listed as Homo sapiens) [compound 69]"
  readoutValue: "“+++” (≥50 = +++)"

Entry 154 (ALDDGTPAL; listed as Homo sapiens) [compound 154] , Peptide exchange (MHC class I binding score, peptide exchange yield) reported as “++” (≥20% = ++)

substance 459 (ALITEVVRL; listed as Homo sapiens) [compound 459] , Peptide exchange (MHC class I binding score, peptide exchange yield) observed: “++” (≥20% = ++)

So for 287 (FLNEFFLNV; listed as Homo sapiens) [compound 287] , the logged Peptide exchange (MHC class I binding score, peptide exchange yield) turned out to be “+++” (≥50 = +++)

Quick note, Peptide exchange (MHC class I binding score, peptide exchange yield) for 588 (SLLPLSHLV; listed as Homo sapiens) [compound 588] landed at “+++” (≥50 = +++)

* * *

Molecular target: HLA-A*02:01 (Homo sapiens, UniProt P04439, D140Y/D185E/D98H/E176V/E277Q/G131W/G231S/I119V/I121R/I166T/I218V/L300P/L318F/N151K/N90K/P208A/P217A/Q86G/Q94H/R138H/R169H/T345S)
Assay: MHC binding assay (UV-ligand exchange, β2m ELISA, peptide exchange yield)
Conditions: binding of HLA-class I restricted peptides to HLA-A*02:01, UV-ligand exchange
Text: Candidate peptides for T cell based therapies according to the present invention were further tested for their MHC binding capacity (affinity). The individual peptide-MHC complexes were produced by UV-ligand exchange, where a UV-sensitive peptide is cleaved upon UV-irradiation, and exchanged with the peptide of interest as analyzed. Only peptide candidates that can effectively bind and stabilize the peptide-receptive MHC molecules prevent dissociation of the MHC complexes. […]
parameterMeasured: Peptide exchange (MHC class I binding score, peptide exchange yield)

Sample answers from the record:
- substance: "462 (KLAKQPETV; listed as Homo sapiens) [compound 462]"
  readoutValue: "“+++” (≥50 = +++)"
- substance: "41 (SLMPHIPGL; listed as Homo sapiens) [compound 41]"
  readoutValue: "“+++” (≥50 = +++)"
- substance: "456 (LLIGHLERV; listed as Homo sapiens) [compound 456]"
  readoutValue: "“+++” (≥50 = +++)"
- substance: "566 (VIADGGIQNV; listed as Homo sapiens) [compound 566]"
  readoutValue: "“++” (≥20% = ++)"
- substance: "374 (FLLQQHLISA; listed as Homo sapiens) [compound 374]"
  readoutValue: "“++” (≥20% = ++)"

Reported Peptide exchange (MHC class I binding score, peptide exchange yield) ( 432 (TLIEESAKV; listed as Homo sapiens) [compound 432] ) = “++” (≥20% = ++)

# substance 547 (TLDITPHTV; listed as Homo sapiens) [compound 547] ; its Peptide exchange (MHC class I binding score, peptide exchange yield) = “+++” (≥50 = +++)

The value of Peptide exchange (MHC class I binding score, peptide exchange yield) measured for the substance 448 (NLLETKLQL; listed as Homo sapiens) [compound 448] turned out to be “+++” (≥50 = +++)

Peptide exchange (MHC class I binding score, peptide exchange yield) for 125 (VQIHQVAQV; listed as Homo sapiens) [compound 125] is “+++” (≥50 = +++)

Peptide exchange (MHC class I binding score, peptide exchange yield) in this record for 325 (FIMPATVADATAV; listed as Homo sapiens) [compound 325] : “+++” (≥50 = +++)

# substance 382 (ALQNYIKEA; listed as Homo sapiens) [compound 382] ; its Peptide exchange (MHC class I binding score, peptide exchange yield) = “++” (≥20% = ++)

Recorded Peptide exchange (MHC class I binding score, peptide exchange yield) (substance 182 (MLLEAPGIFL; listed as Homo sapiens) [compound 182] ): “+++” (≥50 = +++)

Lab note: measured Peptide exchange (MHC class I binding score, peptide exchange yield) of 614 (LLLPDQPPYHL; listed as Homo sapiens) [compound 614] was “+++” (≥50 = +++)
